The entries below are paired with their reported inhibition.
test: inhibitors of TNFa-induced NFkB p65 translocation, primary screen, imaging, HUVEC, MLSMR starter and 10KST1 sets (AID 438); conditions: HUVEC TNFa-induced p65 nuclear translocation; at 2 µM, stronger effect = higher value, 0% TNFa-plus-vehicle, 100% no-TNFa wells;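 further: compound added about 3h40 before a 20 min TNFalpha stimulation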;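 on inhibition: signal is the nuclear over cytoplasmic p65 intensity ratio per well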
Reply with just the number (in %).

Solved entries (count: 3):
>  <molecule>
COc1ccc(C2CC(c3ccc(OC)cc3)n3nc(N)nc3N2)cc1 (stereo not given)

>  <recordedResult>
6.1

$$$$
>  <molecule>
CCOCCCNC(=O)C1CCN(S(=O)(=O)N(CC(C)C)CC(C)C)CC1

>  <recordedResult>
-5.1

$$$$
>  <molecule>
Cc1ccccc1N1OC2C(=O)N(c3ccc(F)cc3)C(=O)C2C1c1ccccn1 (stereo not given)

>  <recordedResult>
-3.5

$$$$

Now take the following molecule into account.
For this molecule ( COc1ccc(-c2cc3ccc(OCc4nn[nH]n4)cc3oc2=O)cc1 ), measured inhibition is -17.5

* * *

experiment: endothelial E-selectin expression blockers – imaging, HUVEC, immunofluorescence, MLSMR starter and 10KST1 sets, primary screen (AID 487); settings: HUVEC TNFalpha-induced E-selectin immunofluorescence imaging, at 2 µM; measured here: cell number, toxicity;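 on nuclei count: 100% = median nuclei count of all wells on the same plate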
The entries below are paired with their reported nuclei count.
Reply with just the number (in %).

Solved entries (count: 5):
>  <molecule>
CCOC(=O)N1CCN(c2c(NCC3CCN(Cc4cccc(C)c4)CC3)c(=O)c2=O)CC1

>  <unitText>
%

>  <nuclei count>
129

$$$$
>  <molecule>
CCOc1cc(C(=O)N2CCN=C2SC)cc(OCC)c1OCC

>  <unitText>
%

>  <nuclei count>
108

$$$$
>  <molecule>
COc1cc2c(=O)n(Cc3ccccc3)c(=O)n(CC(=O)NCc3ccco3)c2cc1OC

>  <unitText>
%

>  <nuclei count>
109

$$$$
>  <molecule>
Nn1c(SCc2csc(-c3ccccc3)n2)nnc1-c1cccs1

>  <unitText>
%

>  <nuclei count>
116

$$$$
>  <molecule>
Cc1nc2sc(C(c3cccs3)N3CCC(C(N)=O)CC3)c(O)n2n1 (configuration not stated)

>  <unitText>
%

>  <nuclei count>
120

$$$$

For this molecule ( COc1ccc(N2CCN(Cc3nc(-c4ccc(Cl)cc4Cl)no3)CC2)cc1 ), measured nuclei count is 122

For this molecule ( COc1cc2nc(SCC(=O)NC3CC3)n(CCC3=CCCCC3)c(=O)c2cc1OC ), measured nuclei count is 108

* * *

assay: TLR3 IRF3 reporter activation blockers – cell-based, poly I:C stimulus, luciferase, 10K MLSCN set, primary screen (AID 602277); settings: HEK293-TLR3 RL24 IRF3 luciferase reporter, at 10 µM, stronger effect = higher value
measure: inhibition (%)
Reply with just the number (in %).

Solved entries (count: 3):
>  <compound>
COc1ccc(C(=O)NCCSc2ccccn2)cc1

>  <measure>
inhibition

>  <unitText>
%

>  <recordedResult>
-64.3

$$$$
>  <compound>
O=C(CN1CCC(c2nc3ccccc3s2)CC1)NCc1cccs1

>  <measure>
inhibition

>  <unitText>
%

>  <recordedResult>
-58.5

$$$$
>  <compound>
COc1cccc(C2C(C(N)=O)=C(C)Nc3nc(-c4ccccc4Cl)nn32)c1 (centres undefined)

>  <measure>
inhibition

>  <unitText>
%

>  <recordedResult>
40.8

$$$$

For this compound ( C=CCn1c(CC#N)nnc1N1CCOCC1 ), measured inhibition is 13.3

* * *

assay: inhibitors of TNFa-induced NFkB p65 translocation, primary screen, imaging, HUVEC, MLSMR starter and 10KST1 sets (AID 438); settings: HUVEC TNFa-induced p65 nuclear translocation; measured here: nuclei count (cytotoxicity indicator), at 2.08 µM;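 further: compound added about 3h40 before a 20 min TNFalpha stimulation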
The entries below are paired with their reported cell count.
In your answer, state the number alone without any accompanying words.

Solved entries (count: 5):
>  <molecule>
C/C(=N\O)C(C)/[N+]([O-])=C/c1nc(C)c(C)n1O (centres undefined)

>  <measure>
cell count

>  <recordedResult>
611

$$$$
>  <molecule>
CCCCOC(=O)CN1C(=O)c2ccc(C(=O)OCCCC)cc2C1=O

>  <measure>
cell count

>  <recordedResult>
619

$$$$
>  <molecule>
Cc1cc(=O)n(-c2ccc3ccccc3n2)[nH]1

>  <measure>
cell count

>  <recordedResult>
383

$$$$
>  <molecule>
Cc1cc(NC(=O)CSc2nc3c(c(=O)n2Cc2ccccc2)SC(C)C3)no1 (centres undefined)

>  <measure>
cell count

>  <recordedResult>
554

$$$$
>  <molecule>
CCOc1ccc(NC(=O)C2CC(=O)N(C(C)C)C2)cc1 (centres undefined)

>  <measure>
cell count

>  <recordedResult>
346

$$$$

For this molecule ( Cc1nnc(NCCc2ccccc2)n(N)c1=O ), measured cell count is 806

For this molecule ( O=S(=O)(c1ccccc1)c1nc(-c2cccs2)oc1NCC1CCCO1 (centres undefined) ), measured cell count is 566

* * *

assay: endothelial E-selectin expression blockers – imaging, HUVEC, immunofluorescence, MLSMR starter and 10KST1 sets, primary screen (AID 487); conditions: HUVEC TNFalpha-induced E-selectin immunofluorescence imaging, at 2 µM; stronger effect = higher value;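 on inhibition: signal is fraction of cell area covered by stained E-selectin grains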
Label Yes when inhibition is at or above -20%; otherwise label No.

>  <compound>
CCc1ccc(C=NC23CN4CN(CN(C4)C2)C3)s1

>  <classification>
No

$$$$

Exercise: # bool: inhibition of Cc1ccc(N(CC(=O)NCC2CCCO2)S(C)(=O)=O)cc1Cl (configuration not stated) >= -20%
Key: No

Exercise: # bool: inhibition of COc1ccc(NC(=O)N(C2CCCCC2)C2CCN(C(C)C)CC2)c(OC)c1 >= -20%
Key: Yes

Exercise: # bool: inhibition of COc1nc(NCCc2ccc(OC)c(OC)c2)nc(NC(C)(C)CO)n1 >= -20%
Key: Yes

Exercise: # bool: inhibition of CCOC(=O)N1CCN(CC(=O)Nc2cc(C)nn2-c2nc3ccccc3s2)CC1 >= -20%
Key: No

Exercise: # bool: inhibition of Oc1ccc2ccccc2c1CN1CCN(c2ccccc2F)CC1 >= -20%
Key: Yes

Exercise: # bool: inhibition of Cc1ccc2c(c1)NC(=O)C(CC(=O)NC1CCCCC1C)O2 (configuration not stated) >= -20%
Key: Yes

Exercise: # bool: inhibition of CC12CCC(C(=O)N3CCCCC3)(CC1=O)C2(C)C (configuration not stated) >= -20%
Key: No

Exercise: # bool: inhibition of CN=Cc1cc(-c2ccccc2)sc1O >= -20%
Key: No

Exercise: # bool: inhibition of CCOC(=O)Nc1c(O)ccc2oc(C)c(-c3ccccc3)c12 >= -20%
Key: No

* * *

The entries below are paired with their reported inhibition.
assay: endothelial E-selectin expression blockers – imaging, HUVEC, immunofluorescence, MLSMR starter and 10KST1 sets, primary screen (AID 487); settings: HUVEC TNFalpha-induced E-selectin immunofluorescence imaging, at 2 µM; stronger effect = higher value;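 on inhibition: signal is fraction of cell area covered by stained E-selectin grains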
Reply with just the number (in %).

Solved entries (count: 5):
>  <molecule>
CCCCS(=O)(=O)NC1=NCN(CCOC(=O)c2ccccc2)CN1

>  <unitText>
%

>  <inhibition>
-50.4

$$$$
>  <molecule>
N#Cc1ccc(CSc2nnc(-c3cccs3)n2-c2ccccc2)cc1

>  <unitText>
%

>  <inhibition>
-50

$$$$
>  <molecule>
Nc1nc2n(n1)C(c1c(F)cccc1Cl)CC(c1ccc(F)cc1)N2 (configuration not stated)

>  <unitText>
%

>  <inhibition>
-37

$$$$
>  <molecule>
Cc1ccc2c(Cl)cc(Cl)c(OCc3c(C)noc3C)c2n1

>  <unitText>
%

>  <inhibition>
-164

$$$$
>  <molecule>
CCOc1ccc(CNC(=O)C2CCCN(S(C)(=O)=O)C2)cc1OC (configuration not stated)

>  <unitText>
%

>  <inhibition>
-95.3

$$$$

For this molecule ( COc1cccc(NC(=O)N2CCN(c3cccc(C)c3C)CC2)c1 ), measured inhibition is -139

For this molecule ( COc1ccc(CCNc2nc(N3CCOCC3)nc(N3CCOCC3)n2)cc1OC ), measured inhibition is 15.6

For this molecule ( CS(=O)(=O)N1CCc2cc(S(=O)(=O)Nc3ccc4oc5c(c4c3)CCCC5)ccc21 ), measured inhibition is -40

For this molecule ( COc1ccc(/C=N/n2cc(-c3ccc(OC)cc3)nc2N)cc1 ), measured inhibition is 6.3

For this molecule ( CC(C)c1ccc(S(=O)(=O)N2CCN(CCC(=O)Nc3ccc(N(C)C)cc3)CC2)cc1 ), measured inhibition is -15.3

* * *

The entries below are paired with their reported inhibition of aggregation.
assay: reduction of polyQ htt aggregates in cells – imaging, exon1htt(103Q)mCFP cells, high-content imaging, primary screen (AID 483); conditions: exon1htt(103Q)mCFP cell line, aggregate imaging, at 2 µM; stronger effect = higher value;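 further: compound exposure lasted 3 days before fixation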
Reply with just the number (in %).

>  <molecule>
Cn1c(=O)n(CCN2CCOCC2)c(=O)c2c1nc1n2CCN1c1ccccc1

>  <inhibition of aggregation / %>
27.9

$$$$
>  <molecule>
COc1ccc(C(=O)N2CCN(C(=O)c3ccco3)CC2)cc1OC

>  <inhibition of aggregation / %>
-2.2

$$$$
>  <molecule>
CCOC(=O)c1ccc(NS(=O)(=O)c2cccc3nsnc23)cc1

>  <inhibition of aggregation / %>
18.9

$$$$

For this molecule ( COc1ccc(Cl)cc1S(=O)(=O)n1cnc2ccccc21 ), measured inhibition of aggregation is -5.8

For this molecule ( CCOc1ccccc1C(=O)Nc1nnc(CC)s1 ), measured inhibition of aggregation is 12.2

For this molecule ( Cc1ccc(C)c(/C(O)=C2\C(=O)C(=O)N(CCCN3CCOCC3)C2c2cccnc2)c1 (configuration not stated) ), measured inhibition of aggregation is -1.6

For this molecule ( CC(C)CNC(=O)c1ccccc1NC(=O)c1ccc(CN2CCOCC2)cc1 ), measured inhibition of aggregation is 4
